Task for the reader: assign each of the following compounds its reported CC50 at 3 days.
protocol: Cytotoxicity assay
Assay type: cell-based, human
measurementConditions: human, A549 cells
Lab note: write values as number then unit, every time.

Below: 2 compounds and their reported CC50 at 3 days.
O=c1c(O)c(-c2ccc(O)c(O)c2)oc2cc(O)ccc12	1190 µM
COc1ccc(-c2cc(=O)c3c(O)cc(O[C@@H]4O[C@H](CO[C@@H]5O[C@@H](C)[C@H](O)[C@@H](O)[C@H]5O)[C@@H](O)[C@H](O)[C@H]4O)cc3o2)cc1O [Diosmin, diosmetin 7-O-rutinoside]	11300 µM

Now look at this one.
Data request: Requested read-out: CC50 at 3 days. Entry: O=c1cc(-c2ccc(O)c(O)c2)oc2c([C@@H]3O[C@H](CO)[C@@H](O)[C@H](O)[C@H]3O)c(O)cc(O)c12
Data returned: 1040 µM
